target: Neu5Ac(a2-3)Gal(b1-4)GlcNAc6S; assay: glycan array binding signal (z-score within array); higher = stronger binding; conditions: glycan notation: IUPAC condensed, linker removed
The entries come from a sample that favours the strongest signals as a whole.
# key: entry, value: glycan array binding signal (z-score)
Just the number, please, no unit attached.

A selection of reference data follows.
binder	glycan array binding signal (z-score)
Si Bti9 1b-V5-his (Solanum lycopersicum) (protein) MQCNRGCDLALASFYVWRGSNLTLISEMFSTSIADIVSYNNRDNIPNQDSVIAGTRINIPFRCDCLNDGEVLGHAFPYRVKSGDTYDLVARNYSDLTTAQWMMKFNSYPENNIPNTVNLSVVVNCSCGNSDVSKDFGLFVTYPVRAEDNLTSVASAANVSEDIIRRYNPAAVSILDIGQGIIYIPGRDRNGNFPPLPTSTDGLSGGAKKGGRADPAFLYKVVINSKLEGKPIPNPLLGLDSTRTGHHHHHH	10.6
HHL-2 (Homo sapiens), P07307 (protein) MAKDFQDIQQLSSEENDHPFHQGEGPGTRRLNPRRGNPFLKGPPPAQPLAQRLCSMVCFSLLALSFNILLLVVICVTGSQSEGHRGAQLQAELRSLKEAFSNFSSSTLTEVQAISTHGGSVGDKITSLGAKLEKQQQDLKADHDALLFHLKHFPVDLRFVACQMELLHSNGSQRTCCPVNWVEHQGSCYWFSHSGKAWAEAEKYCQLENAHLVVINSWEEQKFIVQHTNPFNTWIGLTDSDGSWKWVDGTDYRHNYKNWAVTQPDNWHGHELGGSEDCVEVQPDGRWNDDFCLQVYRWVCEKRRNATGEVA	-0.075

**Q:** Please give the measured glycan array binding signal (z-score) for this binder: DCAL1 (Homo sapiens), Q8IZS7 (protein) MVSNFFHVIQVFEKSATLISKTEHIGFVIYSWRKSTTHLGSRRKFAISIYLSEVSLQKYDCPFSGTSFVVFSLFLICAMAGDVVYADIKTVRTSPLELAFPLQRSVSFNFSTVHKSCPAKDWKVHKGKCYWIAETKKSWNKSQNDCAINNSYLMVIQDITAMVRFNI
**A:** -0.184

**Q:** Please give the measured glycan array binding signal (z-score) for this binder: DrGal3 (Danio rerio) (protein) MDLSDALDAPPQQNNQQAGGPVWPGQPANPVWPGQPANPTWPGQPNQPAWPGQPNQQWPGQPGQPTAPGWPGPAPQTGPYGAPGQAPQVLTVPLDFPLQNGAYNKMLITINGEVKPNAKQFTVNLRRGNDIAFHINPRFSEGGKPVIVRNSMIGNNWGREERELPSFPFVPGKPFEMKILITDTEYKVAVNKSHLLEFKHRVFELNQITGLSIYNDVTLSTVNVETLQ
**A:** -0.189

**Q:** Please give the measured glycan array binding signal (z-score) for this binder: DCIR1 (Mus musculus), Q9QZ15 (protein) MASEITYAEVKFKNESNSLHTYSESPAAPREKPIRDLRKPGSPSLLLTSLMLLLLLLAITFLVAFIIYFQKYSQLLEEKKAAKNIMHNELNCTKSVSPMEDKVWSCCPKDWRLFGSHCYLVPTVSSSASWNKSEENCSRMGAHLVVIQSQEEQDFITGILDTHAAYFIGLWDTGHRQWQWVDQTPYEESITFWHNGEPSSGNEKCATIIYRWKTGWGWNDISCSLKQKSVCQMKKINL
**A:** 0.145

**Q:** Please give the measured glycan array binding signal (z-score) for this binder: VLRB.aGPA.23-GCN4-biotin (Petromyzon marinus) (protein) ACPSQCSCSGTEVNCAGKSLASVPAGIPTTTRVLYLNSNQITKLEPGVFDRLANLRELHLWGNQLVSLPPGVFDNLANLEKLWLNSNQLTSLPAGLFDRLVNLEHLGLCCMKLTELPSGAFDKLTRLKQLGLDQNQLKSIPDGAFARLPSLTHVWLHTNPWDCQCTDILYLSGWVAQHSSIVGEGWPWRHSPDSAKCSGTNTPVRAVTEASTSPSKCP
**A:** -0.079

**Q:** Please give the measured glycan array binding signal (z-score) for this binder: SP16665A-bot-344-23-344 (Bacteroides ovatus) (protein) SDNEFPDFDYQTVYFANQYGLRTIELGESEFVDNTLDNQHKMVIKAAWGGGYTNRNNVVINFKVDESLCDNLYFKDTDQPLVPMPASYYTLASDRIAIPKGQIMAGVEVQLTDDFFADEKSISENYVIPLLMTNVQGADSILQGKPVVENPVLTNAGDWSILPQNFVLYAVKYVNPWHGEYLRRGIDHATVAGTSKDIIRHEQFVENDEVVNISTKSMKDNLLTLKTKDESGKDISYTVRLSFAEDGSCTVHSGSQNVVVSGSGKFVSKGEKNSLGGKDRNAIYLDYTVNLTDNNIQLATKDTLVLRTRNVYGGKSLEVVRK
**A:** -0.405

**Q:** Please give the measured glycan array binding signal (z-score) for this binder: MVL (Microcystis viridis), Q9RHG4 (protein) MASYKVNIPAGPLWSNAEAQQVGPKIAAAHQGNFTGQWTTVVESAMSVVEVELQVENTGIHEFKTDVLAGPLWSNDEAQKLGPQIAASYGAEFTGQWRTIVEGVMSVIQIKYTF
**A:** -0.238

**Q:** Please give the measured glycan array binding signal (z-score) for this binder: Threefoil (Haloarcula marismortui) (protein) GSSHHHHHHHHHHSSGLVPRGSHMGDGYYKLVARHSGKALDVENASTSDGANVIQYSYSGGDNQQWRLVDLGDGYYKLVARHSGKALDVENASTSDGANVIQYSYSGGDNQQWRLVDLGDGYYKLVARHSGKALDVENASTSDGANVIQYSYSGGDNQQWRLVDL
**A:** -0.364

**Q:** Please give the measured glycan array binding signal (z-score) for this binder: CD34 (Homo sapiens), P28906 (protein) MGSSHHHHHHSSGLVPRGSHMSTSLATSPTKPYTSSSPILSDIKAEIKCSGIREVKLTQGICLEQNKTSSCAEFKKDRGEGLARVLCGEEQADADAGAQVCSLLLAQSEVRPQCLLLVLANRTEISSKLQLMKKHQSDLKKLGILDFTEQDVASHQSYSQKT
**A:** -0.319
